Values were extracted from patent US20250129104A1.

Biological target: recombinant DYRK1A kinase (Homo sapiens (Human), UniProt Q13627)
Assay: DYRK1A kinase assay (Ser/Thr 18 peptide Z-lyte FRET assay)
Conditions: DYRK1A kinase activity; 15 μM ATP, 1 h room temperature; method text calls the value IC50
Readout: EC50 (nM)
Write the value in nM as a bare number.

Some molecules with known EC50 results, for comparison:
COc1nc(NC2CCC(F)(F)CC2)nc2[nH]cc(-c3ccc4ncccc4c3)c12; 175
Cc1nc2cnc(-c3c[nH]c4ncncc34)cc2n1C(C)C; 71.3

Report value: EC50, system: recombinant DYRK1A kinase (Homo sapiens (Human), UniProt Q13627), molecule: CCOc1nc(N[C@H]2CC[C@@H](O)CC2)nc2[nH]cc(-c3ccc4nccnc4c3)c12
1.3

Report value: EC50, system: recombinant DYRK1A kinase (Homo sapiens (Human), UniProt Q13627), molecule: C[C@H](Nc1ncc2c(-c3ccc4ncnn4c3)c[nH]c2n1)C(F)(F)F
78.7

Report value: EC50, system: recombinant DYRK1A kinase (Homo sapiens (Human), UniProt Q13627), molecule: C[C@@H](Nc1ncc2c(-c3ccc4nccn4n3)c[nH]c2n1)C(F)(F)F
5.5

Report value: EC50, system: recombinant DYRK1A kinase (Homo sapiens (Human), UniProt Q13627), molecule: COC[C@H](C)Nc1ncc2c(-c3cc(F)c4ncc(C)n4c3)c[nH]c2n1
17

Report value: EC50, system: recombinant DYRK1A kinase (Homo sapiens (Human), UniProt Q13627), molecule: Cc1nc2c(F)cc(-c3c[nH]c4nc(C5CCC5)ncc34)cc2n1C(C)C
19.8

Report value: EC50, system: recombinant DYRK1A kinase (Homo sapiens (Human), UniProt Q13627), molecule: Fc1cc(-c2c[nH]c3nc(NC4CCOCC4)ncc23)cn2ccnc12
23
